study-target: FPR1 (Homo sapiens, UniProt P21462)
Sequence (P21462 1-350): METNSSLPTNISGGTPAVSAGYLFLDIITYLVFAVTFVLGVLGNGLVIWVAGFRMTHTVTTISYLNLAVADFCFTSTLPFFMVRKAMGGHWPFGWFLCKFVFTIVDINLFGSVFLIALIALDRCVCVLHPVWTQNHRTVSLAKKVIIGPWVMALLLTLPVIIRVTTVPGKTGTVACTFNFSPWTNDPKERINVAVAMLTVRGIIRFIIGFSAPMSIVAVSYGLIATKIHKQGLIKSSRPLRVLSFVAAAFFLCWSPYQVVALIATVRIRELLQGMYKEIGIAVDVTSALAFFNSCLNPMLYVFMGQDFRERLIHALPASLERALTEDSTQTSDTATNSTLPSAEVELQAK
assay-method-text: Change in calcium activity by peptide, FPR1 activation effect
Type: cell-based
experimental-context: calcium activity (Fura-2), graded per Table 3, read-out: EC50 for [Ca^2+] FPR1
pEC50: −log10 of the molar value. Peptide text beside a SMILES is read from it.
Provide the reported pEC50 of each item.

Can you share its pEC50? I mean this molecule: CSCC[C@H](NC(C)=O)C(=O)N[C@@H](CCCNC(=N)N)C(=O)N[C@@H](Cc1ccc(O)cc1)C(=O)N[C@@H](CCCCN)C(=O)N1CCC[C@H]1C(=O)N[C@H](CCSC)C(N)=O [Peptide 55] (HELM PEPTIDE1{[ac].M.R.Y.K.P.[dM].[am]}$$$$V2.0)
< 5.00

Follow-up item: CSCC[C@@H](NC(=O)[C@H](Cc1ccc(O)cc1)NC(=O)[C@H](CCCCN)NC(=O)[C@H](Cc1ccc(O)cc1)NC(=O)[C@H](CCCCN)NC(=O)[C@H](Cc1c[nH]c2ccccc12)NC(=O)[C@H](CCCCN)NC(C)=O)C(N)=O [Peptide 36] (HELM PEPTIDE1{[ac].K.W.K.Y.K.Y.[dM].[am]}$$$$V2.0)
< 5.00

And then CCCCCCCC(=O)N[C@@H](CCCNC(=N)N)C(=O)N[C@@H](Cc1c[nH]c2ccccc12)C(=O)N[C@@H](CCCNC(=N)N)C(=O)N[C@@H](Cc1ccc(O)cc1)C(=O)N[C@@H](CCCCN)C(=O)N[C@H](C(=O)N[C@H](CCSC)C(N)=O)C(C)C [Peptide 2] (HELM PEPTIDE1{[CCCCCCCC(=O)[*:2]].R.W.R.Y.K.V.[dM].[am]}$$$$V2.0) , what is it?
5.00 to 6.00

====

Would you kindly list pEC50 for each of these compounds?
study-target: FPR2 (Homo sapiens, UniProt P25090)
Sequence (P25090 1-351): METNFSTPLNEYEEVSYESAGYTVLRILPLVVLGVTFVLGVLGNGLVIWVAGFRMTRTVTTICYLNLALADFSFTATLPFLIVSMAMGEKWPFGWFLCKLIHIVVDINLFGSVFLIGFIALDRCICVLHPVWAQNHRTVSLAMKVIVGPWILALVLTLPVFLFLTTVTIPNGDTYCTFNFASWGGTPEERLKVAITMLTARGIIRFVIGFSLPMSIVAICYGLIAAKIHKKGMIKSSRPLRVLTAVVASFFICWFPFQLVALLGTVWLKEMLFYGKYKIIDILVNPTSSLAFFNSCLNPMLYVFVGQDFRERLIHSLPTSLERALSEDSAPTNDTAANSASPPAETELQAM
assay-method-text: Change in calcium activity by peptide (Fura-2) in RBL cells overexpressing FPR2
experimental-context: calcium activity (Fura-2), graded per Table 3, read-out: EC50 for [Ca^2+] FPR2
pEC50: −log10 of the molar value. Peptide text beside a SMILES is read from it.

# input compound: CSCC[C@H](NC(=O)[C@@H](N)Cc1c[nH]cn1)C(=O)N[C@@H](CCCCN)C(=O)N[C@@H](Cc1ccc(O)cc1)C(=O)N[C@@H](CCCCN)C(=O)N[C@H](C(=O)N[C@H](CCSC)C(N)=O)C(C)C [Peptide 21] (HELM PEPTIDE1{H.M.K.Y.K.V.[dM].[am]}$$$$V2.0) ; wanted: its pEC50
> 8.00

Also CSCC[C@H](NC(=O)[C@H](Cc1c[nH]cn1)NC(C)=O)C(=O)N[C@@H](CCCNC(=N)N)C(=O)N[C@@H](Cc1ccc(O)cc1)C(=O)N[C@@H](Cc1c[nH]c2ccccc12)C(=O)N[C@@H](Cc1ccc(O)cc1)C(=O)N[C@H](CCSC)C(N)=O [Peptide 92] (HELM PEPTIDE1{[ac].H.M.R.Y.W.Y.[dM].[am]}$$$$V2.0) ?
> 8.00

Can you check CC[C@H](C)[C@H](NC(C)=O)C(=O)N[C@@H](CCCCN)C(=O)N[C@@H](Cc1ccc(O)cc1)C(=O)N[C@@H](CCCCN)C(=O)N1CCC[C@H]1C(=O)N[C@H](CCSC)C(N)=O [Peptide 143] (HELM PEPTIDE1{[ac].I.K.Y.K.P.[dM].[am]}$$$$V2.0) next?
> 8.00

Can you check CSCC[C@@H](NC(=O)[C@@H](NC(=O)[C@H](CCCNC(=N)N)NC(=O)[C@H](Cc1ccc(O)cc1)NC(=O)[C@H](CCCNC(=N)N)NC(=O)[C@H](Cc1c[nH]c2ccccc12)NC(=O)[C@@H](N)CCCNC(=N)N)[C@@H](C)O)C(N)=O [Peptide 153] (HELM PEPTIDE1{R.W.R.Y.R.T.[dM].[am]}$$$$V2.0) next?
7.00 to 7.96

What do you have for CSCC[C@H](NC(=O)[C@H](CCCCN)NC(C)=O)C(=O)N[C@@H](CCCCN)C(=O)N[C@@H](Cc1ccc(O)cc1)C(=O)N[C@@H](CCCCN)C(=O)N[C@H](C(=O)N[C@H](CCSC)C(N)=O)C(C)C [Peptide 10] (HELM PEPTIDE1{[ac].K.M.K.Y.K.V.[dM].[am]}$$$$V2.0) ?
7.00 to 7.96

Repeat with CSCC[C@@H](NC(=O)[C@@H]1CCCN1C(=O)[C@H](Cc1c[nH]c2ccccc12)NC(=O)[C@H](Cc1ccc(O)cc1)NC(=O)[C@H](CCCNC(=N)N)NC(=O)[C@@H](N)Cc1c[nH]c2ccccc12)C(N)=O [Peptide 118] (HELM PEPTIDE1{W.R.Y.W.P.[dM].[am]}$$$$V2.0)
> 8.00
